src = ChEMBL document CHEMBL3885881

# Organism: Rattus norvegicus
# protocol description: DrugMatrix - Regimen: Daily Repeat
# Type: toxicity, organism-based, Sprague-Dawley
# Set-up: regimen Daily Repeat, gender Male, age 6-8 weeks
# experimental context: in vivo, po, 0 mg/kg, 72 h, tissue Plasma, route oral GAVAGE, dose level Control, time 3 day, vehicle .5 % CMC
Items are presented alongside their recorded CHLORIDE.
Reply with just the number (in MEQ/L).

A selection of reference data follows.
Prompt line: Record request: CHLORIDE value, item N=C(N)NC(=O)c1nc(Cl)c(N)nc1N [AMILORIDE]
Response line: 105.17

Prompt line: Same question, CC[C@@H](CO)NCCN[C@@H](CC)CO [ETHAMBUTOL] this time
Response line: 105.17

Prompt line: Would you mind doing Clc1ccc2c(c1)C(N1CCNCC1)=Nc1ccccc1O2 [AMOXAPINE] as well?
Response line: 102.33

Prompt line: Then what about the molecule C[C@]1(Cn2ccnn2)[C@H](C(=O)O)N2C(=O)C[C@H]2S1(=O)=O [TAZOBACTAM] ?
Response line: 99.17

Prompt line: Another molecule: CN1C(=O)COc2c(C(=O)NC3CN4CCC3CC4)cc(Cl)cc21 (stereo unspecified) [AZASETRON]
Response line: 98.17

Others:
Prompt line: Query: CHLORIDE; subject: C#C[C@]1(O)CC[C@H]2[C@@H]3CCc4cc(OC)ccc4[C@H]3CC[C@@]21C [MESTRANOL]
Response line: 99.17

Prompt line: Now consider CC(C)[C@H]1CC[C@H](C(=O)N[C@H](Cc2ccccc2)C(=O)O)CC1 [NATEGLINIDE] and answer again.
Response line: 102.5

Prompt line: Subsequent entry: Cc1onc(-c2ccccc2)c1-c1ccc(S(N)(=O)=O)cc1 [VALDECOXIB]
Response line: 96.67

Prompt line: Repeat for the following molecule: CN1CCC(=C2c3ccccc3C=Cc3ccccc32)CC1 [CYPROHEPTADINE]
Response line: 104.33

Prompt line: Repeat for the following molecule: OC(CCN1CCCCC1)(c1ccccc1)C1CCCCC1 (stereo unspecified) [TRIHEXYPHENIDYL]
Response line: 97.67

Prompt line: Moving on to C[C@](O)(CS(=O)(=O)c1ccc(F)cc1)C(=O)Nc1ccc(C#N)c(C(F)(F)F)c1 [(R)-BICALUTAMIDE]
Response line: 100.83
